Recorded values, source patent US20210380703A1.

# Assayed system: T1, biotinylated goat anti-human kappa light chain
# T1 construct: Positive control of the ELISA
# Assay remarks: ELISA, positive control; note: test concentration or dose not given here
Value kind: optical density (OD)
Kindly provide the numeric value in OD only, without the unit symbol.

Here's what some known entries look like.
365_E08 (antibody, V domains shown, VH and VL only) VH: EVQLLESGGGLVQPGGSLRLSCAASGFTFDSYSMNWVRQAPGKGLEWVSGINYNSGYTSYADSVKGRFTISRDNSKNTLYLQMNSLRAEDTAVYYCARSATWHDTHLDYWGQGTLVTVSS VL: DIQMTQSPSSLSASVGDRVTITCRASQSIISYVNWYQQKPGKAPKLVIYAATSLASGVPSRFSGSGSGTDFTLTISSLQPEDFATYYCQQSYDLPLTFGGGTKVEIK : 3.33
373_F02 (antibody, V domains shown, VH and VL only) VH: EVQLLESGGGLVQPGGSLRLSCAASGFTFDSYSMNWVRQAPGKGLEWVSGINYNSGYKSYADSVKGRFTISRDNSKNTLYLQMNSLRAEDTAVYYCARSATWHDTHLDYWGQGTLVTVSS VL: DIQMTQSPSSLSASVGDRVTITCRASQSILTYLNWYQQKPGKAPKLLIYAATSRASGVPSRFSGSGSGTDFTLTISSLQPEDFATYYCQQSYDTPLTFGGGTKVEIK : 3.15
367_D02 (antibody, V domains shown, VH and VL only) VH: EVQLLESGGGLVQPGGSLRLSCAASGFTFDDYSMNWVRQAPGKGLEWVSNINYNGGYTSYADSVKGRFTISRDNSKNTLYLQMNSLRAEDTAVYYCARSATWHDTHLDYWGQGTLVTVSS VL: DIQMTQSPSSLSASVGDRVTITCRASQSIVTYVNWYQQKPGKAPKLLIYAATSRASGVPSRFSGSGSGTDFTLTISSLQPEDFATYYCQQSYENPLTFGGGTKVEIK : 3.46
374_E06 (antibody, V domains shown, VH and VL only) VH: EVQLLESGGGLVQPGGSLRLSCAASGFTFDSYSMNWVRQAPGKGLEWVSSINYNSGYKGYADSVKGRFTISRDNSKNTLYLQMNSLRAEDTAVYYCARSATWHDTHLDYWGQGTLVTVSS VL: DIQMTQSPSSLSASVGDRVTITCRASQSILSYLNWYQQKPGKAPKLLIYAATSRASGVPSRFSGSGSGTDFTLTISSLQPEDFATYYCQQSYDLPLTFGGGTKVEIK : 3.25
374_E04 (antibody, V domains shown, VH and VL only) VH: EVQLLESGGGLVQPGGSLRLSCAASGFTFSSYSMNWVRQAPGKGLEWVSGINYNSGYKSYADSVKGRFTISRDNSKNTLYLQMNSLRAEDTAVYYCARSATWHDTHLDYWGQGTLVTVSS VL: DIQMTQSPSSLSASVGDRVTITCRASQSILSYLNWYQQKPGKAPKLLIYAVTSRASGVPSRFSGSGSGTDFTLTISSLQPEDFATYYCQQSYNNPLTFGGGTKVEIK : 3.19
374_A03 (antibody, V domains shown, VH and VL only) VH: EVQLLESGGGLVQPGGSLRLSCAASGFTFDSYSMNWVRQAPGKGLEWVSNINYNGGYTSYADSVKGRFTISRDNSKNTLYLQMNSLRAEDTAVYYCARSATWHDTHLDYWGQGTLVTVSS VL: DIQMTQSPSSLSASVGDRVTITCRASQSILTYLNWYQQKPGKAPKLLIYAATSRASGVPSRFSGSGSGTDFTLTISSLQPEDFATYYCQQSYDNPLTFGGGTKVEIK : 3.05

Which optical density is reported for this binder? 374_E03 (antibody, V domains shown, VH and VL only) VH: EVQLLESGGGLVQPGGSLRLSCAASGFTFSSYSMNWVRQAPGKGLEWVSNINYNSGYKGYADSVKGRFTISRDNSKNTLYLQMNSLRAEDTAVYYCARSATWHDTHLDYWGQGTLVTVSS VL: DIQMTQSPSSLSASVGDRVTITCRASQSILTYVNWYQQKPGKAPKLVIYAATSLASGVPSRFSGSGSGTDFTLTISSLQPEDFATYYCQQSYDTPLTFGGGTKVEIK
3.13

Which optical density is reported for this binder? 373_D02 (antibody, V domains shown, VH and VL only) VH: EVQLLESGGGLVQPGGSLRLSCAASGFTFSSYSMNWVRQAPGKGLEWVSNINYNSGYKGYADSVKGRFTISRDNSKNTLYLQMNSLRAEDTAVYYCARSATWHDTHLDYWGQGTLVTVSS VL: DIQMTQSPSSLSASVGDRVTITCRASQSILSYLNWYQQKPGKAPKLLIYAATSLASGVPSRFSGSGSGTDFTLTISSLQPEDFATYYCQQSYDLPLTFGGGTKVEIK
3.19

Which optical density is reported for this binder? 368_H10 (antibody, V domains shown, VH and VL only) VH: EVQLLESGGGLVQPGGSLRLSCAASGFTFSSYSMNWVRQAPGKGLEWVSSINYNSGYKGYADSVKGRFTISRDNSKNTLYLQMNSLRAEDTAVYYCARSATWHDTHLDYWGQGTLVTVSS VL: DIQMTQSPSSLSASVGDRVTITCRASQSIVSYVNWYQQKPGKAPKLVIYAVTSLASGVPSRFSGSGSGTDFTLTISSLQPEDFATYYCQQSYETPLTFGGGTKVEIK
3.36

Which optical density is reported for this binder? 372_H03 (antibody, V domains shown, VH and VL only) VH: EVQLLESGGGLVQPGGSLRLSCAASGFTFDSYGMNWVRQAPGKGLEWVSNINYNGGYKSYADSVKGRFTISRDNSKNTLYLQMNSLRAEDTAVYYCARSATWHDTHLDYWGQGTLVTVSS VL: DIQMTQSPSSLSASVGDRVTITCRASQSIITYVNWYQQKPGKAPKLLIYAATSLASGVPSRFSGSGSGTDFTLTISSLQPEDFATYYCQQSYNLPLTFGGGTKVEIK
3.64
